Where these numbers come from: the kinase profiling compilation of Christmann-Franck et al. (2016)

molecular target: UniProt:Q15746; experiment: radiometric filter-binding kinase assay, Kinase HotSpot; settings: compound 0.5 µM; ATP 10 µM
Sequence (Q15746 whole entry, looked up): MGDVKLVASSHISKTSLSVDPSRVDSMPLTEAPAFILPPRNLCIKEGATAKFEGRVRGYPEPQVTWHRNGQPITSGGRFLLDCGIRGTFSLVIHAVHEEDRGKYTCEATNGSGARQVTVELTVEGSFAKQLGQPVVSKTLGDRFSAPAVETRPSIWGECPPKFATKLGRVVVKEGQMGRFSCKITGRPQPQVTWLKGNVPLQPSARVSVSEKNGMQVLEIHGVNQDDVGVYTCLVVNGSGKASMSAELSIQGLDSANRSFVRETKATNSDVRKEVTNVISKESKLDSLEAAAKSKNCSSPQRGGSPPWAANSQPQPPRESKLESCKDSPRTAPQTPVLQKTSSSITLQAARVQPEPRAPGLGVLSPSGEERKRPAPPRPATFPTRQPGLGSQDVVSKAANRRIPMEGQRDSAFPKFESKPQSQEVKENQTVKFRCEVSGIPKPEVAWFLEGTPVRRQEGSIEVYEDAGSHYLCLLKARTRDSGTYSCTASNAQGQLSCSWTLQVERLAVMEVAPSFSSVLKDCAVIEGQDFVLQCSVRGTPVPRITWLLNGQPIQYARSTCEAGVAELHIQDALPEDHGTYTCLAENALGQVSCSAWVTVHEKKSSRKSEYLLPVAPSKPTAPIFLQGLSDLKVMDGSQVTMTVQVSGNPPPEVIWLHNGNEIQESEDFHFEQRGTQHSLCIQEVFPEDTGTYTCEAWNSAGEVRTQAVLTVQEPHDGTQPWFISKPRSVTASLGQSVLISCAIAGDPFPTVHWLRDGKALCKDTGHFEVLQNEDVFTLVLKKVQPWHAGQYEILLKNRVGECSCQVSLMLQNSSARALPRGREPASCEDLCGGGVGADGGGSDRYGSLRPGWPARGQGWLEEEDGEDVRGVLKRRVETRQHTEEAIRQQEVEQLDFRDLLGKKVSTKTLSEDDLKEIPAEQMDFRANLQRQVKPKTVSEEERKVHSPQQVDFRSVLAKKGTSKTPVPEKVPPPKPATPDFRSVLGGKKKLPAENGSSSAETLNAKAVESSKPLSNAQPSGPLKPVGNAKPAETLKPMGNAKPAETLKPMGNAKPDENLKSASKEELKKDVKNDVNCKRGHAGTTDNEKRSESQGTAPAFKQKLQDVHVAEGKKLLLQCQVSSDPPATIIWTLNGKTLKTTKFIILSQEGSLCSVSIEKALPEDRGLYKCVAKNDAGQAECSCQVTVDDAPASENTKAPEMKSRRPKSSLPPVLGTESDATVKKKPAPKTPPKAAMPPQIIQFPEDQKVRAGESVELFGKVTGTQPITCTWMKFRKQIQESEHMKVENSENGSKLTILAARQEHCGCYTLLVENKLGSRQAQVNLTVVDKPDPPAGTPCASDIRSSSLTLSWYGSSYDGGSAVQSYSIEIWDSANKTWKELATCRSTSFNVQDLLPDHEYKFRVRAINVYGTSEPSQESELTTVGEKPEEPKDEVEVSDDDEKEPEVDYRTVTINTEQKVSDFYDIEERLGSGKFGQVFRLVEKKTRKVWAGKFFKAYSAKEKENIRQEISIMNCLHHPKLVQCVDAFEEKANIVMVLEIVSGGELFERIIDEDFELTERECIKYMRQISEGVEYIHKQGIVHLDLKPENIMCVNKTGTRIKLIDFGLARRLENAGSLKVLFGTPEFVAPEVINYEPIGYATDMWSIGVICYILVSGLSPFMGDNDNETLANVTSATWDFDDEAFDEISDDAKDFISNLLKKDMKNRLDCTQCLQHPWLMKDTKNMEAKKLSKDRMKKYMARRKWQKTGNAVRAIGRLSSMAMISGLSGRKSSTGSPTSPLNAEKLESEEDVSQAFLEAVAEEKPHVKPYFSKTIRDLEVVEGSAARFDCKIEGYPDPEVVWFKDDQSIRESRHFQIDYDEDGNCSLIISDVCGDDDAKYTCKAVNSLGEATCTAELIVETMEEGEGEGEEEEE
Simple rule here: residual activity less than 90% is 1, otherwise 0.

Illustrative cases are given below, each with its answer.
- SMILES_INPUT: "CN(C)S(=O)(=O)c1ccc2c(c1)/C(=C/c1cc3c([nH]1)CCCC3)C(=O)N2"
  CLASS_ASSIGNMENT: 0
- SMILES_INPUT: "Cc1nc(-c2ccccc2)c(-c2ccncc2)o1"
  CLASS_ASSIGNMENT: 0
- SMILES_INPUT: "N#C/C(=C\\c1ccc(O)c(O)c1)C(=O)NCc1ccccc1"
  CLASS_ASSIGNMENT: 0
- SMILES_INPUT: "N#Cc1c[nH]c2c[nH]/c(=N\\Cc3cccnc3)cc2/c1=N\\c1ccc(F)c(Cl)c1"
  CLASS_ASSIGNMENT: 0
- SMILES_INPUT: "Fc1ccc(-c2nc3n(c2-c2ccncc2)CCS3)cc1"
  CLASS_ASSIGNMENT: 0
- SMILES_INPUT: "COc1ccc2c(c1)/C(=C/c1cnc[nH]1)C(O)=N2"
  CLASS_ASSIGNMENT: 1
- SMILES_INPUT: "c1ccc2c(-c3ccncc3)c[nH]c2c1"
  CLASS_ASSIGNMENT: 0
- SMILES_INPUT: "CN(C)CCCn1cc(C2=C(c3c[nH]c4ccccc34)C(=O)NC2=O)c2ccccc21"
  CLASS_ASSIGNMENT: 1
- SMILES_INPUT: "COc1ccc(S(=O)(=O)N(CCO)c2ccccc2CN(C)C/C=C/c2ccc(Cl)cc2)cc1"
  CLASS_ASSIGNMENT: 0
- SMILES_INPUT: "COc1ccc2c(c1)c(C1=C(c3c[nH]c4ccccc34)C(=O)NC1=O)cn2CCCN(C)C"
  CLASS_ASSIGNMENT: 1

Q: Is the reported residual activity for CCCCc1c(-c2ccc(OC)cc2)[nH]c2nccnc12 strictly below 90%?
A: 0

Q: Say whether its residual activity is strictly beneath 90%. Entry: O=C1NC(=O)c2c1c1c3ccccc3[nH]c1n1cncc21
A: 1

====

target: CSNK1D (human) (UniProt P48730); assay: radiometric filter-binding kinase assay, Kinase HotSpot; conditions: compound 0.5 µM; ATP 10 µM
Sequence (P48730 whole entry, looked up): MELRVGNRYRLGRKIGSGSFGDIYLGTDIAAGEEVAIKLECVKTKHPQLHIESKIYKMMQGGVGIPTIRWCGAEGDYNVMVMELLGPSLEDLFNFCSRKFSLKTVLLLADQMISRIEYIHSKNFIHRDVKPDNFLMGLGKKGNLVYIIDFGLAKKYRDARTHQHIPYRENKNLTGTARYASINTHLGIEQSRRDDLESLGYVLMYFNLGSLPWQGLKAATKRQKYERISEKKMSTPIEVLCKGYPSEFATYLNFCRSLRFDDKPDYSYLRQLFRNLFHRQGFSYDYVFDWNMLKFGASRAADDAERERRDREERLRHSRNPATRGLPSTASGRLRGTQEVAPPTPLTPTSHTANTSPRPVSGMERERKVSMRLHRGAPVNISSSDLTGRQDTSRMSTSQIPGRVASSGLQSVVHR
MEASURED_ENDPOINT: residual activity (%)
Quick reminder: number only, in %, skip the unit.

- SMILES_INPUT: "COc1ccc(Cl)cc1NC(=O)Nc1cc(C)nc2ccccc12"
  READOUT_UNITS: "%"
  VAL: 98.7
- SMILES_INPUT: "CN(C)CCCn1cc(C2=C(c3c[nH]c4ccccc34)C(=O)NC2=O)c2ccccc21"
  READOUT_UNITS: "%"
  VAL: 97.6
- SMILES_INPUT: "Cc1cncc2cccc(S(=O)(=O)N3CCCN(C(=O)CN)C[C@H]3C)c12"
  READOUT_UNITS: "%"
  VAL: 107

Q: Recorded residual activity for COc1ccc2c(c1)c(C1=C(c3c[nH]c4ccccc34)C(=O)NC1=O)cn2CCCN(C)C , please?
A: 92

Q: I am curious: what residual activity value has been reported for N#Cc1c[nH]c2c[nH]/c(=N\Cc3cccnc3)cc2/c1=N\c1ccc(F)c(Cl)c1 ?
A: 88.4

Q: Given the entry COc1cc2ncnc(Nc3ccc(OCc4ccccc4)cc3)c2cc1OC , report its measured residual activity.
A: 96.6

====

molecular target: NEK1 (human) (UniProt Q96PY6); experiment: radiometric filter-binding kinase assay, Kinase HotSpot; details: compound 0.5 µM; ATP 10 µM
Sequence (Q96PY6 whole entry, looked up): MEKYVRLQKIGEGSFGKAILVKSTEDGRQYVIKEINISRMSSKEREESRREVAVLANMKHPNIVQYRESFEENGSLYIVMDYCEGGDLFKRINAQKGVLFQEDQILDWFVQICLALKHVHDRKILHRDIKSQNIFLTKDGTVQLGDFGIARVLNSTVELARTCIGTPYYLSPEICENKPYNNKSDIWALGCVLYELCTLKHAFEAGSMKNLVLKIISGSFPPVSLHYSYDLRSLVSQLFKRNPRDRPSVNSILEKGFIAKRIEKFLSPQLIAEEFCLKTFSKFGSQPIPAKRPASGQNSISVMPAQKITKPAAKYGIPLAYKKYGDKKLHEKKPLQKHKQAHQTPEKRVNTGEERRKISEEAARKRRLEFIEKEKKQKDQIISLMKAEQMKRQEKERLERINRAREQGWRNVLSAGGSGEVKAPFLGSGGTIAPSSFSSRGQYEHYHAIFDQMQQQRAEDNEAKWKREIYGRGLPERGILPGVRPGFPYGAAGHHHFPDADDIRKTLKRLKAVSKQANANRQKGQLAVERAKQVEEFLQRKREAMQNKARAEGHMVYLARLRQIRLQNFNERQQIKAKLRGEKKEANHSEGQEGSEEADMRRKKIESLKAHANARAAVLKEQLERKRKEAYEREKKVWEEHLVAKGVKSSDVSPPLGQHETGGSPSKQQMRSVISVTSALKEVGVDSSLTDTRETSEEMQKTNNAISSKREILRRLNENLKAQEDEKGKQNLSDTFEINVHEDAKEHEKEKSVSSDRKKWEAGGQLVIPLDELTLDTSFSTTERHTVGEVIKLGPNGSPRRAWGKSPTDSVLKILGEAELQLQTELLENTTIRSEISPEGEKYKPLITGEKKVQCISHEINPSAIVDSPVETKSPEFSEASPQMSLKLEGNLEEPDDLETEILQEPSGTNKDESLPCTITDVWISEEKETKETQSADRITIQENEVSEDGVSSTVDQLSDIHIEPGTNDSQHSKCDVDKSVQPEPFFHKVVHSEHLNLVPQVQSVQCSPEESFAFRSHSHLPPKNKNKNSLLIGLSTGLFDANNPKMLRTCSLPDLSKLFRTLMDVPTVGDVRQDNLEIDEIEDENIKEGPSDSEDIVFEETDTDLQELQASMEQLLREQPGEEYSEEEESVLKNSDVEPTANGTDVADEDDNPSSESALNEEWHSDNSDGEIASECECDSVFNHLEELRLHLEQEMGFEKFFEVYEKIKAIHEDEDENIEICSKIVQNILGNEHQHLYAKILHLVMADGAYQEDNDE
Reported values of residual activity for individual entries
The answer is to be given in %; state only the numeric part.

Consider the worked cases shown below.
- SMILES_INPUT: "CN(C)S(=O)(=O)c1ccc2c(c1)/C(=C/c1cc3c([nH]1)CCCC3)C(=O)N2"
  TARGET: "NEK1 (human) (UniProt Q96PY6)"
  READOUT_UNITS: "%"
  residual activity: 93.1
- SMILES_INPUT: "Fc1ccc(-c2nc3n(c2-c2ccncc2)CCS3)cc1"
  TARGET: "NEK1 (human) (UniProt Q96PY6)"
  READOUT_UNITS: "%"
  residual activity: 103
- SMILES_INPUT: "CN(C)c1ccc(/C=C2\\C(=O)Nc3ccccc32)cc1"
  TARGET: "NEK1 (human) (UniProt Q96PY6)"
  READOUT_UNITS: "%"
  residual activity: 112
- SMILES_INPUT: "COc1ccc2c(c1)c(C1=C(c3c[nH]c4ccccc34)C(=O)NC1=O)cn2CCCN(C)C"
  TARGET: "NEK1 (human) (UniProt Q96PY6)"
  READOUT_UNITS: "%"
  residual activity: 94.7

Query compound follows.
Q: What does the data say about its residual activity? Entry: O=C1NC(=O)c2c1c1c3ccccc3[nH]c1n1cncc21
A: 75.2

====

target: EPHB1 (human); assay: radiometric filter-binding kinase assay, Kinase HotSpot; settings: compound 0.5 µM; ATP 10 µM
MEASURED_ENDPOINT: residual activity

Q: I have this molecule here, CCCCc1c(-c2ccc(OC)cc2)[nH]c2nccnc12 , and I need its recorded residual activity.
A: 76%

Q: Which residual activity is reported for this molecule? COc1ccc(C(=O)Nc2sc3c(c2C(N)=O)CCCC3)cc1OC
A: 95%

Q: I would be grateful if you could share the reported residual activity for Ic1cccc(CSc2nnc(-c3ccncc3)o2)c1 .
A: 101%

====

molecular target: SGK3 (human) (UniProt Q96BR1); assay: radiometric filter-binding kinase assay, Kinase HotSpot; details: compound 0.5 µM; ATP 10 µM
Sequence (Q96BR1 whole entry, looked up): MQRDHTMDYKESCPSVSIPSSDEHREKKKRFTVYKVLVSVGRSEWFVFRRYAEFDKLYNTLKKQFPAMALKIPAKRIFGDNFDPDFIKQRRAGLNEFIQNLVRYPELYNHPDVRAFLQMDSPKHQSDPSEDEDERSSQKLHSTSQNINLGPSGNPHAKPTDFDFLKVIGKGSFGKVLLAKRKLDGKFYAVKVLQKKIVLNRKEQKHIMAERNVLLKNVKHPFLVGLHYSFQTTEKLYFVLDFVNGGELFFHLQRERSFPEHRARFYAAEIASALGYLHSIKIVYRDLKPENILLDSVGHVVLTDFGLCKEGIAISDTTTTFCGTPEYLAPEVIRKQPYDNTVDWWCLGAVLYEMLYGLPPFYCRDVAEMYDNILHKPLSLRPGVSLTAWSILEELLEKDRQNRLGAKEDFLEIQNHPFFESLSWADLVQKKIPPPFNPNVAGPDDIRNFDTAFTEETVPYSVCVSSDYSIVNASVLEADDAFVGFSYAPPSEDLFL
MEASURED_ENDPOINT: residual activity (%)
Give the value, in units of %, as a plain number.

- SMILES_INPUT: "Cn1c2ccccc2c2c3c(c4c5ccccc5n(CCC#N)c4c21)CNC3=O"
  TARGET: "SGK3 (human) (UniProt Q96BR1)"
  VAL: 112
- SMILES_INPUT: "COc1ccc(C(=O)Nc2sc3c(c2C(N)=O)CCCC3)cc1OC"
  TARGET: "SGK3 (human) (UniProt Q96BR1)"
  VAL: 103
- SMILES_INPUT: "Ic1cccc(CSc2nnc(-c3ccncc3)o2)c1"
  TARGET: "SGK3 (human) (UniProt Q96BR1)"
  VAL: 98.5
- SMILES_INPUT: "O=C1C(Cl)=C(N2C(=O)CCC2=O)C(=O)c2ccccc21"
  TARGET: "SGK3 (human) (UniProt Q96BR1)"
  VAL: 103
- SMILES_INPUT: "O=C(c1cc2cc(O)ccc2[nH]1)c1cc2cc(O)ccc2[nH]1"
  TARGET: "SGK3 (human) (UniProt Q96BR1)"
  VAL: 113

Q: residual activity lookup needed for CCCCc1c(-c2ccc(OC)cc2)[nH]c2nccnc12 , thanks.
A: 98.6

Q: Look up residual activity for this molecule: COc1ccc(S(=O)(=O)N(CCO)c2ccccc2CN(C)C/C=C/c2ccc(Cl)cc2)cc1
A: 106

Q: Could you tell me which residual activity is on file for N#Cc1c[nH]c2c[nH]/c(=N\Cc3cccnc3)cc2/c1=N\c1ccc(F)c(Cl)c1 ?
A: 91.5

Q: Find the recorded residual activity belonging to Fc1ccc(-c2nc3n(c2-c2ccncc2)CCS3)cc1 and report it.
A: 95.8

Q: Which measured residual activity value corresponds to CN(C)S(=O)(=O)c1ccc2c(c1)/C(=C/c1cc3c([nH]1)CCCC3)C(=O)N2 ?
A: 98.1

Q: For the molecule NC(=O)c1cccc(-c2cc(Nc3ccc(OC(F)(F)F)cc3)ncn2)c1 , what residual activity is on record?
A: 104

====

residual activity for assorted compounds
biological target: MAPK1 (human) (UniProt P28482); assay: radiometric filter-binding kinase assay, Kinase HotSpot; settings: compound 0.5 µM; ATP 10 µM
Sequence (P28482 whole entry, looked up): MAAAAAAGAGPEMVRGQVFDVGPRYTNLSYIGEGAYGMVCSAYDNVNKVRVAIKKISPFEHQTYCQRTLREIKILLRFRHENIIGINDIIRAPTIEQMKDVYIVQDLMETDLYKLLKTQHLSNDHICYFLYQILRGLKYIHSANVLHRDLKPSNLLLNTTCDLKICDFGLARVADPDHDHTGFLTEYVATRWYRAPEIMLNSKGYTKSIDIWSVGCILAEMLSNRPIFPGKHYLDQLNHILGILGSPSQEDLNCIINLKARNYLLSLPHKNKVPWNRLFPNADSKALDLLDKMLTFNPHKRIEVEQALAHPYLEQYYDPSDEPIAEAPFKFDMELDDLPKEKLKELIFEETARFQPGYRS
Numeric only. Scale: %

Previously resolved entries follow.
- SMILES_INPUT: "Cn1c2ccccc2c2c3c(c4c5ccccc5n(CCC#N)c4c21)CNC3=O"
  VAL: 104
- SMILES_INPUT: "CN(C)c1ccc(/C=C2\\C(=O)Nc3ccccc32)cc1"
  VAL: 96.4
- SMILES_INPUT: "Cc1cccc(-c2nc(C(C)(C)C)[nH]c2-c2ccc3c(c2)OCO3)n1"
  VAL: 95.8
- SMILES_INPUT: "O=C1c2ccccc2-c2nc3nnnn3nc21"
  VAL: 87.5

Q: Fill blank: measured residual activity of the compound O=C1NC(=O)c2c1c1c3ccccc3[nH]c1n1cncc21 is ____.
A: 125

Q: Given the compound Cc1cncc2cccc(S(=O)(=O)N3CCCN(C(=O)CN)C[C@H]3C)c12 , what is its reported residual activity?
A: 103

Q: Reported residual activity, compound COc1ccc2c(c1)/C(=C/c1cnc[nH]1)C(O)=N2 : ____
A: 93.1

Q: Endpoint output: residual activity of COc1cc2ncnc(Nc3ccc(Oc4ccccc4)cc3)c2cc1OC . Value?
A: 99.8

Q: // lookup residual activity for O=C1Nc2ccc(Br)cc2/C1=C\c1cc2c([nH]1)CCCC2
A: 103

Q: State the recorded residual activity for this entry: N#Cc1c[nH]c2c[nH]/c(=N\Cc3cccnc3)cc2/c1=N\c1ccc(F)c(Cl)c1
A: 105

Q: # query: residual activity of entry C[C@@H]1CCN(C(=O)CC#N)C[C@@H]1N(C)c1ncnc2[nH]ccc12
A: 88.6

Q: Entry COc1cc2ncnc(Nc3ccc(OCc4ccccc4)cc3)c2cc1OC : reported residual activity = ?
A: 100
